assay: Selectivity index, ratio of IC50 for African green monkey Vero cells to MIC for Mycobacterium tuberculosis H37Rv; type: toxicity
property label: selectivity ratio

Field request: selectivity ratio | item: Cn1cc(C(=O)O)c(=O)c2cc(F)c(N3CCN(c4nnc(SCC(=O)c5ccc([N+](=O)[O-])cc5)s4)CC3)cc21
> 12.2

* * *

assay: Cytotoxicity against African green monkey Vero cells after 96 hrs by MTT assay; type: cell-based; settings: chlorocebus sabaeus
property label: CC50 at 96 h

Give the measured CC50 at 96 h of Cn1cc(C(=O)O)c(=O)c2cc(F)c(N3CCN(c4nnc(SCC(=O)c5ccc([N+](=O)[O-])cc5)s4)CC3)cc21 .
> 6.1 µg/mL
